All figures here come from ChEMBL document CHEMBL1817543.

The following compounds are shown together with reported EC50 values.
System: Aorta
Experiment: Vasodilatory activity at endothelium denuded Wistar rat thoracic aorta assessed as relaxation of phenylephrine-induced contraction preincubated for 30 mins before phenylephrine challenge in presence of 1 uM soluble guanylate cyclase inhibitor H-[1,2,4]Oxadiazolo[4,3-a]quinoxalin-1-one
Assay type: functional, tissue-based

# Compound, EC50
data = [
    ("O=[N+]([O-])OCC(Cc1ccc(O)cc1)O[N+](=O)[O-] (stereo not drawn)", "> 100 µM"),
    ("O=[N+]([O-])OCCCO", "> 100 µM"),
    ("O=[N+]([O-])OCCCc1ccc(O)cc1", "> 100 µM"),
]

---

The following molecules are shown together with reported remaining at 3 h values.
Test: Chemical stability of the compound in acidic medium assessed as unchanged compound after 3 hrs at pH 1 by RP-HPLC analysis
Assay type: physicochemical
Details: read-out: Stability
Value Type: remaining at 3 h (%)

# Molecule, Recorded Result
rows = [
    ("CC(=O)Oc1ccccc1C(=O)OCOC(=O)OCCOc1ccc(-c2cc(=S)ss2)cc1", 98),
    ("CC(=O)Oc1ccccc1C(=O)OCOC(=O)Oc1ccc(CCCO[N+](=O)[O-])cc1", 98),
    ("CC(=O)Oc1ccccc1C(=O)O", 90),
    ("CC(=O)Oc1ccccc1C(=O)OCOC(=O)OCC(CO[N+](=O)[O-])O[N+](=O)[O-] (configuration not stated)", 98),
    ("CC(=O)Oc1ccccc1C(=O)OCOC(=O)OCCCO[N+](=O)[O-]", 98),
    ("CC(=O)Oc1ccccc1C(=O)OCOC(=O)Oc1ccc(-c2cc(=S)ss2)cc1", 96),
    ("CC(=O)Oc1ccccc1C(=O)OCOC(=O)Oc1ccc(CC(CO[N+](=O)[O-])O[N+](=O)[O-])cc1 (configuration not stated)", 98),
]
